- TARGET_DESC: T1, 4H1710-bN
- T1 chain: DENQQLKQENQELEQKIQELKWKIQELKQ
- MEASUREMENT_PROTOCOL: two-hybrid library CCNG1;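 further: natural log of median RNA to DNA barcode read ratio; higher means stronger binding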
PROPERTY_MEASURED: interaction score
# answer = number (no unit)

{"BINDER": "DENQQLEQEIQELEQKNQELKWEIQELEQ [4H1081-bN]", "PROPERTY_MEASURED": "interaction score", "REPORTED_RESULT": -2}

## Input What interaction score value was documented for this binder, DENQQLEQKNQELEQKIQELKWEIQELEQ [4H1449-bN] ?
## Output -0.246

## Input What interaction score value was documented for this binder, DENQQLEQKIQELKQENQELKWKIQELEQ [4H1373-bN] ?
## Output -0.292

## Input What interaction score value was documented for this binder, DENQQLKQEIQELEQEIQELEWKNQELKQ [4H1544-bN] ?
## Output 1.41

## Input What interaction score value was documented for this binder, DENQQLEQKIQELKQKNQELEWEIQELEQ [4H1393-bN] ?
## Output -1.7

## Input What interaction score value was documented for this binder, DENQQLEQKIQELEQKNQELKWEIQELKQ [4H1338-bN] ?
## Output -0.345

## Input What interaction score value was documented for this binder, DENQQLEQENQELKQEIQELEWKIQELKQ [4H1222-bN] ?
## Output 0.715
